target: human CB1 receptor (Homo sapiens); construct: expressed in transfected cells; host or cells: HEK293; assay: bioSensAll β-arrestin2 plasma membrane translocation (+GRK2) BRET biosensor assay in HEK293 cells transfected with hCB1; test compound added before EC75-80 of agonist CP55,940 (100 nM); type: cell-based; settings: βArrestin2 (+GRK2) BRET biosensor, vs CP55,940 100 nM (EC75-80), read-out: CB1 wt βarr2 IC50
Sequence (P21554 whole entry): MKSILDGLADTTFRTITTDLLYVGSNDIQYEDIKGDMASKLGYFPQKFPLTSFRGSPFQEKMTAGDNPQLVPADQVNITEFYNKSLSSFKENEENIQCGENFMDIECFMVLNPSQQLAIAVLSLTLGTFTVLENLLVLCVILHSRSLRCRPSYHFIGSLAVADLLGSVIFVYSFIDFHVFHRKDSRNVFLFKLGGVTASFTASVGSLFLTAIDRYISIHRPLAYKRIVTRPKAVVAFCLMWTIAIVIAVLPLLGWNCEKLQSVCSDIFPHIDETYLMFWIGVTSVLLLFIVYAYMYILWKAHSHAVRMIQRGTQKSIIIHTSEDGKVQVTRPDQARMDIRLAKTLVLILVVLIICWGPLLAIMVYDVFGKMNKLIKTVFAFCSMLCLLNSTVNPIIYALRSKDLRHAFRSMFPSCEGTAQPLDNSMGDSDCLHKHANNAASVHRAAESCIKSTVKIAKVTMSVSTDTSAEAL
property measured: IC50

{"columns": ["molecule", "value measured"],
 "data": [
  ["COCCOc1nc(N2CCC(C(F)(F)F)CC2)c2nc(-c3ccccc3Cl)n(-c3ccc(Cl)cc3)c2n1 [Compound 27]", "10.2 nM"],
  ["CN(CCO)c1nc(NC2CN(C(N)=O)C2)c2nc(-c3ccccc3Cl)n(-c3ccc(Cl)cc3)c2n1 [Compound 176]", "> 5000 nM"],
  ["CN(CCO)C(=O)C1CN(c2nc(N(C)CCO)nc3c2nc(-c2ccccc2Cl)n3-c2ccc(Cl)cc2)C1 [Compound 187]", "40.4 nM"],
  ["CCNC1(C(N)=O)CCN(c2nc(-n3ccnc3)nc3c2nc(-c2ccccc2Cl)n3-c2ccc(Cl)cc2)CC1 [Compound 152]", "1.2 nM"],
  ["CN(CCO)c1nc(N2CCC(C)(C(N)=O)CC2)c2nc(-c3ccccn3)n(-c3ccc(Cl)cc3)c2n1 [Compound 63]", "65.1 nM"],
  ["CN(CCO)c1nc(NC2CN(C(=O)C(F)(F)F)C2)c2nc(-c3ccccc3Cl)n(-c3ccc(Cl)cc3)c2n1 [Compound 179]", "1.92 nM"],
  ["CC(=O)NC(=N)Nc1nc(N2CCC(C)(C(N)=O)CC2)c2nc(-c3ccccc3Cl)n(-c3ccc(Cl)cc3)c2n1 [Compound 18]", "11.3 nM"]
]}
